# Tested on: 953936-095-R-J2-PDC spheroids with HUVEC/MSC, viability
# method: Anticancer human tumor 953936-095-R-J2-PDC patient-derived cervical squamous cell carcinoma cell line growth inhibition [PI3K]
# conditionContext: second compound 0.00316 µM; first compound 0.000316 µM; hits give low values
reportedProperty: viability, T/C (%)
Please state the figure in %; there is no need to write the unit.

Example cases with answers are listed next.
| compound | systemUnderTest | unitAbbrev | viability, T/C |
| --- | --- | --- | --- |
| CC(C)n1nc(-c2ccc3oc(N)nc3c2)c2c(N)ncnc21 + CC(Nc1ccc2c(c1)OCCn1cc(N3C(=O)OCC3C(F)F)nc1-2)C(N)=O | 953936-095-R-J2-PDC spheroids with HUVEC/MSC, viability | % | 92.9 |
| Cn1ncnc1[C@H]1c2n[nH]c(=O)c3cc(F)cc(c23)N[C@@H]1c1ccc(F)cc1 + CC(Nc1ccc2c(c1)OCCn1cc(N3C(=O)OCC3C(F)F)nc1-2)C(N)=O | 953936-095-R-J2-PDC spheroids with HUVEC/MSC, viability | % | 99.8 |

The record that follows has no viability, T/C shown yet.
input: Bench note: what viability, T/C did Cn1ncnc1[C@H]1c2n[nH]c(=O)c3cc(F)cc(c23)N[C@@H]1c1ccc(F)cc1 + COc1c(OCCCN2CCOCC2)ccc2c3n(c(=NC(=O)c4cnc(N)nc4)nc12)CCN3 show?
output: 83

----------
# System: 953936-095-R-J2-PDC spheroids with HUVEC/MSC, viability
# method: Anticancer human tumor 953936-095-R-J2-PDC cell line growth inhibition [PI3K]; active means viability on the fitted dose curve at most 10% of control; inactive means the rest;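 further: spheroids exposed to compounds for seven days before read-out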
# conditionContext: second compound 1 µM; first compound 0.316 µM
// allowed return values: yes for active, no for inactive

Some solved entries appear below for comparison.
| compound | className |
| --- | --- |
| CC1(C)CCC(Nc2ncc(C(F)(F)F)c(-c3c[nH]c4c(P(C)(C)=O)c(C#N)ccc34)n2)CN1 (stereo unspecified) + CC(Nc1ncnc2nc[nH]c12)c1cc2cccc(Cl)c2c(=O)n1-c1ccccc1 | no |
| CC1(C)CCC(Nc2ncc(C(F)(F)F)c(-c3c[nH]c4c(P(C)(C)=O)c(C#N)ccc34)n2)CN1 (stereo unspecified) + Cc1nc(NC(=O)N2CCCC2C(N)=O)sc1-c1ccnc(C(C)(C)C(F)(F)F)c1 | no |
| Cn1nccc1Nc1nccc(-c2ccn(C(CO)c3ccc(Cl)c(F)c3)c(=O)c2)n1 (stereo unspecified) + CC(Nc1ccc2c(c1)OCCn1cc(N3C(=O)OCC3C(F)F)nc1-2)C(N)=O | no |

input: Which outcome did this test record for the compound C#Cc1c(F)ccc2cc(O)cc(-c3ncc4c(N5CC6CCC(C5)N6)nc(OCC56CCCN5CC(F)C6)nc4c3F)c12 (stereo unspecified) + COc1c(OCCCN2CCOCC2)ccc2c3n(c(=NC(=O)c4cnc(N)nc4)nc12)CCN3 ?
output: yes

input: Quick one: C=CC(=O)N1CCN(c2nc(=O)n(-c3c(C)ccnc3C(C)C)c3nc(-c4c(O)cccc4F)c(F)cc23)C(C)C1 (stereo unspecified) + Cc1nc(NC(=O)N2CCCC2C(N)=O)sc1-c1ccnc(C(C)(C)C(F)(F)F)c1
output: no

input: Quick one: Cn1ncc(Cl)c1-c1cc(C(=O)NC(CN)Cc2cccc(F)c2)sc1Cl (stereo unspecified) + Cc1nc(NC(=O)N2CCCC2C(N)=O)sc1-c1ccnc(C(C)(C)C(F)(F)F)c1
output: no

----------
Listing: viability, T/C of selected compounds
# Tested on: 953936-095-R-J2-PDC spheroids with HUVEC/MSC, viability
# method: Anticancer human tumor 953936-095-R-J2-PDC cell line growth inhibition [PI3K];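 further: spheroids exposed to compounds for seven days before read-out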
# conditionContext: second compound 3.16 µM; first compound 0.0316 µM; hits give low values
Please state the figure in %; there is no need to write the unit.

| compound | reportedProperty | measuredValue |
| --- | --- | --- |
| CCN1CCN(Cc2ccc(Nc3ncc(F)c(-c4cc(F)c5nc(C)n(C(C)C)c5c4)n3)nc2)CC1 + Cc1nc(NC(=O)N2CCCC2C(N)=O)sc1-c1ccnc(C(C)(C)C(F)(F)F)c1 | viability, T/C | 24.4 |
| Cn1ncnc1[C@H]1c2n[nH]c(=O)c3cc(F)cc(c23)N[C@@H]1c1ccc(F)cc1 + Cc1nc(NC(=O)N2CCCC2C(N)=O)sc1-c1ccnc(C(C)(C)C(F)(F)F)c1 | viability, T/C | 26.5 |

input: Give the reported viability, T/C for CCCS(=O)(=O)Nc1ccc(F)c(C(=O)c2c[nH]c3ncc(-c4ccc(Cl)cc4)cc23)c1F + Cc1nc(NC(=O)N2CCCC2C(N)=O)sc1-c1ccnc(C(C)(C)C(F)(F)F)c1 (system: 953936-095-R-J2-PDC spheroids with HUVEC/MSC, viability).
output: 26.6

input: Quick one: CC(C)NCC(C(=O)N1CCN(c2ncnc3c2C(C)CC3O)CC1)c1ccc(Cl)cc1 (stereo not given) + Cc1nc(NC(=O)N2CCCC2C(N)=O)sc1-c1ccnc(C(C)(C)C(F)(F)F)c1
output: 27.6

input: Quick one: Cn1nccc1Nc1nccc(-c2ccn(C(CO)c3ccc(Cl)c(F)c3)c(=O)c2)n1 (stereo not given) + Cc1nc(NC(=O)N2CCCC2C(N)=O)sc1-c1ccnc(C(C)(C)C(F)(F)F)c1
output: 23.5

----------
# System: 953936-095-R-J2-PDC spheroids with HUVEC/MSC, viability
# method: Anticancer human tumor 953936-095-R-J2-PDC cell line growth inhibition [PI3K];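 further: spheroids exposed to compounds for seven days before read-out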
# conditionContext: second compound 0.00316 µM; first compound 0.01 µM; hits give low values
viability, T/C under 90% gets 1, anything at or over 90% gets 0.

| compound | systemUnderTest | className |
| --- | --- | --- |
| CC(C)n1nc(-c2ccc3oc(N)nc3c2)c2c(N)ncnc21 + COc1c(OCCCN2CCOCC2)ccc2c3n(c(=NC(=O)c4cnc(N)nc4)nc12)CCN3 | 953936-095-R-J2-PDC spheroids with HUVEC/MSC, viability | 1 |
| CC(=O)c1c(C)c2cnc(Nc3ccc(N4CCNCC4)cn3)nc2n(C2CCCC2)c1=O + CC(Nc1ccc2c(c1)OCCn1cc(N3C(=O)OCC3C(F)F)nc1-2)C(N)=O | 953936-095-R-J2-PDC spheroids with HUVEC/MSC, viability | 0 |
| Cn1ncnc1[C@H]1c2n[nH]c(=O)c3cc(F)cc(c23)N[C@@H]1c1ccc(F)cc1 + CC(Nc1ccc2c(c1)OCCn1cc(N3C(=O)OCC3C(F)F)nc1-2)C(N)=O | 953936-095-R-J2-PDC spheroids with HUVEC/MSC, viability | 0 |
| CC(C)n1nc(-c2ccc3oc(N)nc3c2)c2c(N)ncnc21 + CC(Nc1ccc2c(c1)OCCn1cc(N3C(=O)OCC3C(F)F)nc1-2)C(N)=O | 953936-095-R-J2-PDC spheroids with HUVEC/MSC, viability | 1 |
| CCN1CCN(Cc2ccc(Nc3ncc(F)c(-c4cc(F)c5nc(C)n(C(C)C)c5c4)n3)nc2)CC1 + CC(Nc1ccc2c(c1)OCCn1cc(N3C(=O)OCC3C(F)F)nc1-2)C(N)=O | 953936-095-R-J2-PDC spheroids with HUVEC/MSC, viability | 0 |

Note: attention shifts to another entry.
input: In the record for Cn1ncnc1[C@H]1c2n[nH]c(=O)c3cc(F)cc(c23)N[C@@H]1c1ccc(F)cc1 + COc1c(OCCCN2CCOCC2)ccc2c3n(c(=NC(=O)c4cnc(N)nc4)nc12)CCN3 , is viability, T/C less than 90%?
output: 1

----------
# System: 953936-095-R-J2-PDC spheroids with HUVEC/MSC, viability
# method: Anticancer human tumor 953936-095-R-J2-PDC cell line growth inhibition [PI3K];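 further: spheroids exposed to compounds for seven days before read-out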
# conditionContext: second compound 0.0316 µM; first compound 10 µM; hits give low values
viability, T/C under 30% gets yes (1), anything at or over 30% gets no (0).

| compound | systemUnderTest | className |
| --- | --- | --- |
| C#Cc1c(F)ccc2cc(O)cc(-c3ncc4c(N5CC6CCC(C5)N6)nc(OCC56CCCN5CC(F)C6)nc4c3F)c12 (stereo not given) + CC(Nc1ncnc2nc[nH]c12)c1cc2cccc(Cl)c2c(=O)n1-c1ccccc1 | 953936-095-R-J2-PDC spheroids with HUVEC/MSC, viability | no (0) |
| C=CC(=O)N1CCN(c2nc(=O)n(-c3c(C)ccnc3C(C)C)c3nc(-c4c(O)cccc4F)c(F)cc23)C(C)C1 (stereo not given) + CC(Nc1ncnc2nc[nH]c12)c1cc2cccc(Cl)c2c(=O)n1-c1ccccc1 | 953936-095-R-J2-PDC spheroids with HUVEC/MSC, viability | no (0) |
| C=CC(=O)N1CCN(c2nc(=O)n(-c3c(C)ccnc3C(C)C)c3nc(-c4c(O)cccc4F)c(F)cc23)C(C)C1 (stereo not given) + COc1c(OCCCN2CCOCC2)ccc2c3n(c(=NC(=O)c4cnc(N)nc4)nc12)CCN3 | 953936-095-R-J2-PDC spheroids with HUVEC/MSC, viability | no (0) |
| CC(C)NCC(C(=O)N1CCN(c2ncnc3c2C(C)CC3O)CC1)c1ccc(Cl)cc1 (stereo not given) + CC(Nc1ncnc2nc[nH]c12)c1cc2cccc(Cl)c2c(=O)n1-c1ccccc1 | 953936-095-R-J2-PDC spheroids with HUVEC/MSC, viability | yes (1) |
| Cn1nccc1Nc1nccc(-c2ccn(C(CO)c3ccc(Cl)c(F)c3)c(=O)c2)n1 (stereo not given) + COc1c(OCCCN2CCOCC2)ccc2c3n(c(=NC(=O)c4cnc(N)nc4)nc12)CCN3 | 953936-095-R-J2-PDC spheroids with HUVEC/MSC, viability | no (0) |
| CC(C)NCC(C(=O)N1CCN(c2ncnc3c2C(C)CC3O)CC1)c1ccc(Cl)cc1 (stereo not given) + Cc1nc(NC(=O)N2CCCC2C(N)=O)sc1-c1ccnc(C(C)(C)C(F)(F)F)c1 | 953936-095-R-J2-PDC spheroids with HUVEC/MSC, viability | yes (1) |
| CC(C)NCC(C(=O)N1CCN(c2ncnc3c2C(C)CC3O)CC1)c1ccc(Cl)cc1 (stereo not given) + COc1c(OCCCN2CCOCC2)ccc2c3n(c(=NC(=O)c4cnc(N)nc4)nc12)CCN3 | 953936-095-R-J2-PDC spheroids with HUVEC/MSC, viability | yes (1) |
| CC1(C)CCC(CN2CCN(c3ccc(C(=O)NS(=O)(=O)c4ccc(NCC5CCOCC5)c([N+](=O)[O-])c4)c(Oc4cnc5[nH]ccc5c4)c3)CC2)=C(c2ccc(Cl)cc2)C1 + CC(Nc1ncnc2nc[nH]c12)c1cc2cccc(Cl)c2c(=O)n1-c1ccccc1 | 953936-095-R-J2-PDC spheroids with HUVEC/MSC, viability | no (0) |

input: In the record for CNC(=O)c1ccc(N2C(=S)N(c3ccc(C#N)c(C(F)(F)F)c3)C(=O)C2(C)C)cc1F + CC(Nc1ccc2c(c1)OCCn1cc(N3C(=O)OCC3C(F)F)nc1-2)C(N)=O , is viability, T/C less than 30%?
output: no (0)

input: Quick one: CCCS(=O)(=O)Nc1ccc(F)c(C(=O)c2c[nH]c3ncc(-c4ccc(Cl)cc4)cc23)c1F + COc1c(OCCCN2CCOCC2)ccc2c3n(c(=NC(=O)c4cnc(N)nc4)nc12)CCN3
output: yes (1)

The values you see were collected from PubChem BioAssay AID1963971.
